Values from ChEMBL document CHEMBL3108700

assayed-system: TLR2/TLR6 (Mus musculus) (UniProt Q9QUN7+Q9EPW9)
method-notes: Inhibition of TLR2/6 in BALB/c mouse BMDM assessed as downregulation of BLP-stimulated IL-6 level at 5 ug/ml preincubated for 18 hrs followed by BLP challenge measured after 24 hrs by ELISA relative to control
Format: protein-complex assay
Calls of active or inactive are those of the source. The rule behind the calls is not given here.
Please state which outcome applies, choosing from Y (active), N (inactive)

Some solved entries appear below for comparison.
{"smiles-representation": "O=S(=O)(CCN1CCCC1)Cc1cccc(F)c1", "class-name": "N"}
{"smiles-representation": "Cc1ccc(CS(=O)(=O)CCC[N+](C)(C)C)cc1", "class-name": "N"}
{"smiles-representation": "COc1ccc2c(CS(=O)(=O)NCCN3CCCC3)cc(=O)oc2c1", "class-name": "N"}
{"smiles-representation": "O=S(=O)(CCN1CCCC1)NCc1ccc(Br)cc1", "class-name": "N"}

Would you kindly look at the next entry?
q: Hey, what did the test say about `C[N+]1(CCCS(=O)(=O)Cc2ccc(Br)cc2)CCOCC1` ?
a: N

====

assayed-system: Toll-like receptor 9 (Mus musculus) (UniProt Q9EQU3)
Sequence (Q9EQU3 whole entry): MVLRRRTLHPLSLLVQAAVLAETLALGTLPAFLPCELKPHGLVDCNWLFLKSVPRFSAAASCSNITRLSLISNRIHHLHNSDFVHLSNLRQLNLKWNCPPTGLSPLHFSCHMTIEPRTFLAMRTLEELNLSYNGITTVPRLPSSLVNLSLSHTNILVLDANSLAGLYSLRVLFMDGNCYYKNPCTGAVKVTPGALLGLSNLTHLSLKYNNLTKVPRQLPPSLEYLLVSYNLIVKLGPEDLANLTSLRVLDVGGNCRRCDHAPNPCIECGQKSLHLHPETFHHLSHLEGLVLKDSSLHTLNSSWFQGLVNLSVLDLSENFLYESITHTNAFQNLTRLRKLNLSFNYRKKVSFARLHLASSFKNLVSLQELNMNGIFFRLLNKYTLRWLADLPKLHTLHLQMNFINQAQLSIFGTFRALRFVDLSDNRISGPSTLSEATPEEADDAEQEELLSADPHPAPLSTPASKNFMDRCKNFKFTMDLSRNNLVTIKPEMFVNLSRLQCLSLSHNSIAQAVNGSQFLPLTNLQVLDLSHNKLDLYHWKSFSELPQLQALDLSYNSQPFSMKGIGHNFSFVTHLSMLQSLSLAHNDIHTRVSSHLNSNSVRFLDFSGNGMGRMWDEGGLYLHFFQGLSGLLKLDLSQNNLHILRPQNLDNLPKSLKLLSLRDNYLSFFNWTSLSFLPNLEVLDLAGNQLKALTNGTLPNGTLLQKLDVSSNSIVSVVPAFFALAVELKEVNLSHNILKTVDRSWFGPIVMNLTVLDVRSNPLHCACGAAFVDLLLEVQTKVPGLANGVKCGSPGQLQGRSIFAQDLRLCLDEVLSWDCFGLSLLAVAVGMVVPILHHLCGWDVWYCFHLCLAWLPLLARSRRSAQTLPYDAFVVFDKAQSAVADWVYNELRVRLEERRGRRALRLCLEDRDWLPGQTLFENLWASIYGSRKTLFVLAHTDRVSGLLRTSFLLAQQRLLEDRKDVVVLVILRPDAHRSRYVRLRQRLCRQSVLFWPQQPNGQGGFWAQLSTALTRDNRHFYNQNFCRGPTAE
method-notes: Inhibition of TLR9 in BALB/c mouse BMDM assessed as downregulation of CpG-stimulated IL-12p40 level at 5 ug/ml preincubated for 18 hrs followed by CpG challenge measured after 24 hrs by ELISA relative to control
The source made the active and inactive calls. No rule for the calls is given here.
Please state which outcome applies, choosing from yes for active, no for inactive

Some solved entries appear below for comparison.
{"smiles-representation": "CN(C)CCCOP(=O)(O)Oc1ccc(NC(=O)OC(C)(C)C)cc1", "assayed-system": "Toll-like receptor 9 (Mus musculus) (UniProt Q9EQU3)", "class-name": "no"}
{"smiles-representation": "C[N+]1(CCS(=O)(=O)Cc2ccc(Br)cc2)CCCC1", "assayed-system": "Toll-like receptor 9 (Mus musculus) (UniProt Q9EQU3)", "class-name": "no"}
{"smiles-representation": "Cc1ccc(CS(=O)(=O)CCCN2CCCC2)cc1", "assayed-system": "Toll-like receptor 9 (Mus musculus) (UniProt Q9EQU3)", "class-name": "no"}
{"smiles-representation": "Cc1ccc(CP(=O)(O)OCCN(C)C)cc1", "assayed-system": "Toll-like receptor 9 (Mus musculus) (UniProt Q9EQU3)", "class-name": "no"}
{"smiles-representation": "CN1CCN(CCS(=O)(=O)c2ccccc2)CC1", "assayed-system": "Toll-like receptor 9 (Mus musculus) (UniProt Q9EQU3)", "class-name": "no"}
{"smiles-representation": "CN(C)CCCNS(=O)(=O)Cc1ccc(Br)cc1", "assayed-system": "Toll-like receptor 9 (Mus musculus) (UniProt Q9EQU3)", "class-name": "no"}
{"smiles-representation": "CN(C)CCCS(=O)(=O)Cc1ccc(Br)cc1", "assayed-system": "Toll-like receptor 9 (Mus musculus) (UniProt Q9EQU3)", "class-name": "no"}
{"smiles-representation": "COc1ccc2c(CS(=O)(=O)NCCN3CCOCC3)cc(=O)oc2c1", "assayed-system": "Toll-like receptor 9 (Mus musculus) (UniProt Q9EQU3)", "class-name": "no"}
{"smiles-representation": "Cc1ccc(CS(=O)(=O)CC[N+]2(C)CCCC2)cc1", "assayed-system": "Toll-like receptor 9 (Mus musculus) (UniProt Q9EQU3)", "class-name": "no"}
{"smiles-representation": "O=S(=O)(Cc1ccc(Br)cc1)NCCN1CCOCC1", "assayed-system": "Toll-like receptor 9 (Mus musculus) (UniProt Q9EQU3)", "class-name": "no"}

q: Hey, what did the test say about `CN(C)CCS(=O)(=O)NCc1ccc(Br)cc1` ?
a: no

q: Hey, what did the test say about `CN(C)CCN(C)CCS(=O)(=O)Nc1ccc(F)cc1` ?
a: no

q: Hey, what did the test say about `O=S(=O)(CCN1CCCC1)NCc1ccc(Br)cc1` ?
a: no

q: Hey, what did the test say about `CN(C)CCNS(=O)(=O)Cc1ccccc1` ?
a: no

q: Hey, what did the test say about `O=S(=O)(CCN1CCOCC1)Cc1ccc(F)cc1` ?
a: no

q: Hey, what did the test say about `CN(C)CCCNS(=O)(=O)Cc1ccccc1` ?
a: no
